Assay: Binding affinity to fluorescently-labeled c-KIT2 G-quadruplex DNA (unknown origin) by thiazole-ornage dye based fluorescence intercalator displacement assay

| smiles-input | unit-spec | Kd |
| --- | --- | --- |
| O=C(NCc1cn(-c2ccc(NC(=O)[C@@H]3CCCN3)cc2)nn1)c1cccc(C(=O)NCc2cn(-c3ccc(NC(=O)[C@@H]4CCCN4)cc3)nn2)n1 | µM | 22.7 |
